- Target Or System: Blk(m) (Mus musculus, UniProt P16277)
- Construct: purchased Upstate Biotechnology (Dundee, UK), KinaseProfiler service
- Sequence (P16277 whole entry): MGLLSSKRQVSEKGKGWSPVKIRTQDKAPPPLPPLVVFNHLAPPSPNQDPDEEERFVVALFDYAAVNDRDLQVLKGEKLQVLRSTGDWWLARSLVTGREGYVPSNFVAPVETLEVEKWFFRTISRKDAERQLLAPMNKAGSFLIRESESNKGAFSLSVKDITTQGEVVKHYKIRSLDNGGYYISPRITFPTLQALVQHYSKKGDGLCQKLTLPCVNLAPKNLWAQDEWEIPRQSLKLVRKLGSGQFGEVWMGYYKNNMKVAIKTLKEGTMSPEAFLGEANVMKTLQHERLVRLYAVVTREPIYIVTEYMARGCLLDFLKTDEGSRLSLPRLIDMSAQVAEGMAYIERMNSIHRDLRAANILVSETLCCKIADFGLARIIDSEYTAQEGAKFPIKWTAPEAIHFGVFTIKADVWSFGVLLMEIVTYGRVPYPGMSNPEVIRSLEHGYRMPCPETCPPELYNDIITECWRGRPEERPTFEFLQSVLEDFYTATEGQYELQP
- Procedure Text: Upstate KinaseProfiler enzyme assay, Blk
- Assay type: biochemical
- Condition Summary: 500 nM compound; read-out: Percent inhibition at 500 nM Blk(m)
Measure Name: inhibition at 0.5 µM (%)
One number for each entry, in %.

Use the examples below as a reference point.
[
  {
    "Compound": "C=CC(=O)Nc1ccc(Sc2ccnc(Nc3cc(OC)c(OC)c(OC)c3)n2)cc1 [Compound 71]",
    "Measure Unit": "%",
    "Result": 49
  },
  {
    "Compound": "C=CC(=O)Nc1ccc(Sc2ccnc(Nc3ccc(OC)cc3)n2)cc1 [Compound 74]",
    "Measure Unit": "%",
    "Result": 100
  },
  {
    "Compound": "C=CC(=O)Nc1ccc(Sc2nc(Nc3ccc(N4CCOCC4)cc3)ncc2C)c(C)c1 [Compound 163]",
    "Measure Unit": "%",
    "Result": 95
  },
  {
    "Compound": "C=CC(=O)Nc1ccc(Sc2ccnc(Nc3ccc(Cl)cc3)n2)cc1 [Compound 353]",
    "Measure Unit": "%",
    "Result": 100
  },
  {
    "Compound": "C=CC(=O)Nc1cc(C)c(Sc2nc(Nc3ccc(N4CCOCC4)cc3)ncc2C)c(C)c1 [Compound 164]",
    "Measure Unit": "%",
    "Result": 62
  }
]

I need inhibition at 0.5 µM for every entry listed below, if you could help.
1. Cc1cnc(Nc2ccc(N3CCOCC3)cc2)nc1Sc1ccc(N2C(=O)CSCC2=O)cc1 [Compound 231]
2. C=CC(=O)Nc1ccc(Sc2ccnc(Nc3cccc(OC)c3)n2)cc1 [Compound 105]
3. Cc1cnc(Nc2ccc(N3CCOCC3)cc2)nc1Sc1c(C)cc(N)cc1C [Compound 165]

82
100
0

I need inhibition at 0.5 µM for every entry listed below, if you could help.
1. C=CC(=O)Nc1ccc(Sc2ccnc(Nc3ccc(N4CCC(N5CCCC5)CC4)cc3)n2)cc1 [Compound 87]
2. C=CC(=O)Nc1cccc(Sc2ccnc(Nc3cc(OC)c(OC)c(OC)c3)n2)c1 [Compound 51]
3. C=CC(=O)Nc1ccc(Sc2nc(Nc3ccc(NS(C)(=O)=O)cc3)ncc2C)cc1 [Compound 285]
4. C=CC(=O)Nc1ccc(Sc2nc(Nc3ccc(N4CCOCC4)cc3)ncc2C)cc1 [Compound 124]
5. CC#CC(=O)Nc1ccc(Sc2ccnc(Nc3cccc(N4CCOCC4)c3)n2)cc1 [Compound 233]
6. C=CC(=O)Nc1ccc(Sc2nc(Nc3ccc(OC)c(OC)c3)ncc2C)cc1 [Compound 241]

[100, 29, 97, 100, 85, 98]

I need inhibition at 0.5 µM for every entry listed below, if you could help.
1. C=CC(=O)Nc1ccc(Sc2nc(Nc3ccc(N4CCN(C)CC4)cc3)ncc2C)cc1 [Compound 239]
2. N#Cc1nnnn1Cc1ccc(Sc2ccnc(Nc3ccc(N4CCOCC4)cc3)n2)cc1 [Compound 155]
3. C=CC(=O)Nc1ccc(Sc2nc(Nc3cccc(CO)c3)ncc2C)cc1 [Compound 280]

99
40
99

====

- Test system: BaF3 wild-type cells
- Procedure Text: Cellular screening, BaF3 wild-type cells, Alamar Blue
- Type: cell-based
- Condition Summary: Mus musculus, 40 hr, read-out: BAF3wt IC50_nM
pIC50: −log10 of the molar value.
For each of the molecules below, state its pIC50.

I need pIC50 for every entry listed below, if you could help.
1. Cc1cnc(Nc2ccc(N3CCOCC3)cc2)nc1Sc1ccc(NC2CCOC2=O)cc1 (stereo not shown)
2. C=CC(=O)Nc1ccc(Sc2ccnc(Nc3cccc(N4CCOCC4)c3)n2)cc1

1: < 4.70; 2: > 5.30

I need pIC50 for every entry listed below, if you could help.
1. Cc1cnc(Nc2ccc(N3CCOCC3)cc2)nc1Sc1ccc(C(C#N)N2CCN(C)CC2)cc1 (stereo not shown)
2. C=CC(=O)Nc1cccc(Nc2nccc(Sc3cccc(OC)c3)n2)c1

["> 5.30", "> 4.70"]

====

- Target Or System: BaF3 TELJAK3 cells (Homo sapiens)
- Construct: fused on or other part: TEL (ETV6) N-terminal part, coding nucleotides 1-487, serves as the oligomerising partner; It is fused through a Sal I site to the JAK3 kinase domain and expressed from pTRE2 in BaF3 cells bearing pTET-off; P41212 (Transcription factor ETV6)
- Sequence (P52333 1-1124): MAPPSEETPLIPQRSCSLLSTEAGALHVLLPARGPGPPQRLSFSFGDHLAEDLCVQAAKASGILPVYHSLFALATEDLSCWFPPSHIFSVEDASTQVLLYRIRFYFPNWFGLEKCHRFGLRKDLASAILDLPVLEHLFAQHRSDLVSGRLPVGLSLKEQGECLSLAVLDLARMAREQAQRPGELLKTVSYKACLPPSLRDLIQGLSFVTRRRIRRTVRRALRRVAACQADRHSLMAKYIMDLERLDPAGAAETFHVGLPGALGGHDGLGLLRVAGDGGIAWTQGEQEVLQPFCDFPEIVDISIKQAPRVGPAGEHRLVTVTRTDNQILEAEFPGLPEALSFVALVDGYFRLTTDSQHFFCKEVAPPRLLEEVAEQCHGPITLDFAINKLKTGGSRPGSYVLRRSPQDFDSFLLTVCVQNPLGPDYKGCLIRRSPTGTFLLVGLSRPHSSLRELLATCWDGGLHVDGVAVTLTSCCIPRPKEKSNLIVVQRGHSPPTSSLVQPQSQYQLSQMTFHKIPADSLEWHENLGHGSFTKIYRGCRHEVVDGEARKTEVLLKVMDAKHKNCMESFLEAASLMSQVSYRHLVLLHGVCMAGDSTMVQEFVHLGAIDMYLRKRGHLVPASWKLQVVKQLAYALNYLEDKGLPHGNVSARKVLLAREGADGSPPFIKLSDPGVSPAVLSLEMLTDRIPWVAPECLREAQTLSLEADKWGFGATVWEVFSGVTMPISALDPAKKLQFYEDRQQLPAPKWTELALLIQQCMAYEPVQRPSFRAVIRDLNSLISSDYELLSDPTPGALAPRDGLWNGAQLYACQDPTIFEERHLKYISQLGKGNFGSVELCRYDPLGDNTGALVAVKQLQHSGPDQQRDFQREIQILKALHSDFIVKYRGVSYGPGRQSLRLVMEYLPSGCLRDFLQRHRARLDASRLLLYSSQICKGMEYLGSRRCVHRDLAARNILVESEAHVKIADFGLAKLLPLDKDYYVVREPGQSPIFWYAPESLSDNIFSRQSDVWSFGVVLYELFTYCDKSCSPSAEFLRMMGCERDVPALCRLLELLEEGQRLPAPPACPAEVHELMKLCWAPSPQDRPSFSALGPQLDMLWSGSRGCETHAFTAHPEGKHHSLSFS
- Procedure Text: Cellular screening, BaF3 TEL:JAK3 cells, Alamar Blue
- Type: cell-based
- Condition Summary: 40 hr, read-out: BafT_J3 IC50_nM
Measure Name: GI50

[
  {
    "Substance Smiles": "C=CC(=O)Nc1ccc(Sc2ccnc(Nc3cccc(O)c3)n2)cc1",
    "Result": "< 1000 nM"
  }
]

I need GI50 for every entry listed below, if you could help.
1. c1cn(Cc2ccc(Sc3ccnc(Nc4ccc(N5CCOCC5)cc4)n3)cc2)cn1
2. CC#CC(=O)Nc1cccc(Sc2ccnc(Nc3cccc(N4CCOCC4)c3)n2)c1
3. Cc1cnc(Nc2ccc(O)cc2)nc1Sc1ccc(NC(=O)CCl)cc1
4. C=CC(=O)Nc1ccc(Sc2nc(Nc3ccc(N4CCS(=O)(=O)CC4)cc3)ncc2C)cc1
5. C=CC(=O)Nc1ccc(Sc2ccnc(Nc3ccc(N4CCOCC4)cc3)n2)cc1

< 20000 nM
< 5000 nM
< 1000 nM
< 1000 nM
< 1000 nM

I need GI50 for every entry listed below, if you could help.
1. O=C(CCl)Nc1cccc(Sc2ccnc(Nc3ccc(N4CCOCC4)cc3)n2)c1
2. C=C(CN1CCOCC1)C(=O)Nc1cccc(Sc2ccnc(Nc3ccc(N4CCOCC4)cc3)n2)c1

["< 1000 nM", "< 5000 nM"]

====

- Target Or System: human JAK3 (Homo sapiens, UniProt P52333)
pIC50: −log10 of the molar value.
Measure Name: pIC50

Use the examples below as a reference point.
[
  {
    "Compound": "Cc1cnc(Nc2ccc(N3CCOCC3)cc2)nc1Sc1ccc(N2C(=O)C=CC2=O)cc1 [Compound 390]",
    "pIC50": "> 7.00"
  },
  {
    "Compound": "C=CC(=O)Nc1ccc(Sc2ccnc(Nc3ccc(N4CCN(C)CC4)cc3)n2)cc1 [Compound 238]",
    "pIC50": "> 7.00"
  },
  {
    "Compound": "Cc1cnc(Nc2cccc(S)c2)nc1Sc1ccc(NC(=O)CCl)cc1 [Compound 195]",
    "pIC50": "> 7.00"
  },
  {
    "Compound": "N#Cc1c(N)ncn1Cc1cccc(Sc2ccnc(Nc3ccc(N4CCOCC4)cc3)n2)c1 [Compound 199]",
    "pIC50": "> 6.30"
  },
  {
    "Compound": "C=CC(=O)Nc1ccc(Sc2ccnc(Nc3cccc(N4CCOCC4)c3)n2)cc1 [Compound 77]",
    "pIC50": "> 7.00"
  }
]

I need pIC50 for every entry listed below, if you could help.
1. C=CC(=O)Nc1ccc(Sc2nc(Nc3cccc(N4CCN(C)CC4)c3)ncc2C)cc1 [Compound 243]
2. Cc1cc(Sc2nc(Nc3ccc(N4CCOCC4)cc3)ncc2C)ccc1N [Compound 255]
3. C=CC(=O)Nc1ccc(Sc2ccnc(Nc3ccc(S(=O)(=O)N4CCN(C)CC4)cc3)n2)cc1 [Compound 370]

["> 7.00", "> 6.30", "> 7.00"]
